This listing pairs binders with measured ECmax; SRE-luciferase reporter.
Assay System: T1, GPR39 (G protein coupled receptor 39) (UniProt O43194 1-453, limits assumed)
T1 sequence (looked up): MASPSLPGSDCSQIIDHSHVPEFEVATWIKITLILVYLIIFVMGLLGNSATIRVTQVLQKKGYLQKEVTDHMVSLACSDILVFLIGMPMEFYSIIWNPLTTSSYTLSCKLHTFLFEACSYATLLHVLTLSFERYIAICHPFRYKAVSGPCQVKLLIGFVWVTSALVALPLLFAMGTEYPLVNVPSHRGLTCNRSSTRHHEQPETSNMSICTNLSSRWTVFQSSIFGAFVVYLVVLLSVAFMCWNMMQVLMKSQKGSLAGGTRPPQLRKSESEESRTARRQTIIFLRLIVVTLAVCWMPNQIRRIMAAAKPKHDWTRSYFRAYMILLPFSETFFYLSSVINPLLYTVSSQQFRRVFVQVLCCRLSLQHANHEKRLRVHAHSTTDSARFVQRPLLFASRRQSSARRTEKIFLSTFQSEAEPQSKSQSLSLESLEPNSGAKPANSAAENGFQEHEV
Method Description: cell-based or functional assay
Square brackets hold non-standard residues; d marks the D form. Ends that are not written are not given here. * marks the point of attachment. 1‑phenyl = 1-phenyl substituent on the histidine imidazole (1-phenyl-1H-imidazol-4-yl), c1ccc(*)cc1; 4‑methoxylbenzhydryl = COc1ccc(C(c2ccccc2)*)cc1; Biotin = O=C1N[C@H]2[C@H](CS[C@H]2CCCCC(=O)*)N1; dPhe(4-Me) = Cc1ccc(C[C@@H](N)C(=O)O)cc1; Trt = c1ccc(C(c2ccccc2)(c2ccccc2)*)cc1; Octanoyl = CCCCCCCC(=O)*

// worked examples, ECmax; SRE-luciferase reporter included
Input H(1‑phenyl)K(Octanoyl)[dPhe(4-Me)]Y-OH [HKFY-58] , output reported ECmax; SRE-luciferase reporter. 9.12 -fold induction over basal

Name the recorded ECmax; SRE-luciferase reporter of the item Biotin-H(Trt)K(Octanoyl)FY [HKFY-2] in your answer. 15 -fold induction over basal

---
Given the binder H(4‑methoxylbenzhydryl)K(Octanoyl)FY [HKFY-20] , write its reported ECmax; SRE-luciferase reporter. 20.3 -fold induction over basal
